# pEC50 listing for each entry below
# System: AMPA receptor
# assay details: Spreading depression (SD) test in the chicken retina, in vitro
# Assay type: cell-based
# experimental context: antagonism of SD latency generated by 5 μM S-AMPA, isolated chicken retina, 30-minute incubation, room temperature; average ± deviation of the average
pEC50: −log10 of the molar value.

# smiles input, pEC50
records = [
    ("CC(=O)N1N=C(c2ccc(N)c(C)c2)c2cc3c(cc2C[C@H]1C)OCO3", 5.74),
    ("CC(=O)N1N=C(c2ccc(N)c(C)c2)c2cc(Cl)ccc2C[C@H]1C", 5.41),
]

Source: patent US20090233913A1
